target or system: T1, human NPR1 on CHO-K1 cells in the presence of ANP (human, UniProt P01160 124-151)
T1 construct: also called hNPR1 CHO K1 + 100 nM ANP
T1 sequence: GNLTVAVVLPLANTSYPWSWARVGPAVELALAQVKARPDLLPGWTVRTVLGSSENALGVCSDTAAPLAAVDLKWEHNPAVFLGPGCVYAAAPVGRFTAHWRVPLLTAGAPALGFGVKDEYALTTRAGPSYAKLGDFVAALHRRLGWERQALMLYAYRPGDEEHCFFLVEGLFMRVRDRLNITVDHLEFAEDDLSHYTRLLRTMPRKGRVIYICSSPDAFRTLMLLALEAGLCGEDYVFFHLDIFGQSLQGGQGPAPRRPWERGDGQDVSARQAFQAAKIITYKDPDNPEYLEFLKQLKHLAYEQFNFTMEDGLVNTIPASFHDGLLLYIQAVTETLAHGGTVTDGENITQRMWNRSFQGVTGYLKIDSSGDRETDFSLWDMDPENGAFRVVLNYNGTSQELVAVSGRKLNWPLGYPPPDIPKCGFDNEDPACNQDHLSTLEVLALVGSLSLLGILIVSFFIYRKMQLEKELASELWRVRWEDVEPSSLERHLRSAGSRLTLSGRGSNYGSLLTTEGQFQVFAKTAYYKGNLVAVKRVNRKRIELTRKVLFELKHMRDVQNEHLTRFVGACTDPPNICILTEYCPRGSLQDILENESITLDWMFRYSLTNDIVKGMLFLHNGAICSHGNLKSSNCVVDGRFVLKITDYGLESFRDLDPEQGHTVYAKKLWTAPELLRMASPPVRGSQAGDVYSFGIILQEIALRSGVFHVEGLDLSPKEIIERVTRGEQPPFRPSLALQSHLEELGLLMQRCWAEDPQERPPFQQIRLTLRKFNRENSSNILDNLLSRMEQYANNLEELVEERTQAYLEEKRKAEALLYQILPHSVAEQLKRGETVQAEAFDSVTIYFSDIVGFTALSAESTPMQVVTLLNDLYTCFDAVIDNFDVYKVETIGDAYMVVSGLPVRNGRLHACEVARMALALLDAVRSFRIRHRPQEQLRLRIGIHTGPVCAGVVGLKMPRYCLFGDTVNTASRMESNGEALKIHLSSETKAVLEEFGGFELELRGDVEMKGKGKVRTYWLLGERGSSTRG
T1 sequence (peptide): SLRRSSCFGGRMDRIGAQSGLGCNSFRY
run description: flow cytometry, hNPR1 CHO-K1 cells, IgG
quantity measured: flow cytometry S/BG at 1 µM IgG

Below are worked cases with known answers.
binder: YY06 (IgG format) (antibody, V domains shown, also called YY06_LALA) VH: EVQLLESGGGLVQPGGSLRLSCAASGFTFSSYAISWVRQAPGKGLEWVSAISGSGGSTYYAESVKGRFTISRDNSKNTLYLQMNSLRAEDTAVYYCARPYLGDRRSYGFDHWGQGTLVTVSS VL: QSALTQPASVSGSPGQSITISCTGTSSDVGSYNLVSWYQQHPGKAPKLMIYEGSKRPSGVSNRFSGSKSGNTASLTISGLQAEDEADYYCSSYGFHIVVVVFGGGTKLTVLG
flow cytometry S/BG at 1 µM IgG: 18 S/BG

binder: YY01 (IgG format) (antibody, V domains shown, also called YY01_LALA) VH: EVQLVESGGGLVQPGGSLRLSCAASGFTFSSYWISWVRQAPGKGLEWVANIKQSGSETYYVESVKGRFTISRDNAKNSLYLQMNSLRAEDTAVYYCARSLRRRSTEHAGFDVWGQGTLVTVSS VL: DIQMTQSPSSLSASVGDRVTITCRASQGISNYLAWYQQKPGKVPKLLIYAASTLQSGVPSRFSGSGSGTDFTLTISSLQPEDVATYYCQQADKFPYTFGQGTKVEIKR
flow cytometry S/BG at 1 µM IgG: 21 S/BG

binder: YY05 (IgG format) (antibody, V domains shown, also called YY05_LALA) VH: EVQLVQSGAEVKKPGESLKISCKGSGYSFTSYWISWVRQMPGKGLEWMGIIYPGTSYTRYSPSFQGQVTISADKSISTAYLQWSSLKASDTAMYYCARGAVAGQLGFDHWGQGTLVTVSS VL: QSVLTQPPSVSGAPGQRVTISCTGSSSNIGAGYDVHWYQQLPGTAPKLLIYGNSNRPSGVPDRFSGSKSGTSASLAITGLQAEDEADYYCQSYYTSSHGPVFGGGTKLTVLG
flow cytometry S/BG at 1 µM IgG: 5 S/BG

// switching to the query binder
Ask: Answer with the recorded flow cytometry S/BG at 1 µM IgG for the binder listed here: YY07 (IgG format) (antibody, V domains shown, also called YY07_LALA) VH: EVQLVQSGAEVKKPGESLKISCKGSGYSFTSYWISWVRQMPGKGLEWMGIIYPGTSYTRYSPSFQGQVTISADKSISTAYLQWSSLKASDTAMYYCARGSLPGLLGFDHWGQGTLVTVSS VL: QSVLTQPPSVSGAPGQRVTISCTGSSSNIGAGYDVHWYQQLPGTAPKLLIYGNSNRPNGVPDRFSGSKSGTSASLAITGLQAEDEADYYCQSYDSPTSSSVFGGGTKLTVLG
Reply: 44 S/BG
